// reported EC50 for each item listed
Biological target: Peroxisome proliferator-activated receptor gamma/Nuclear receptor coactivator 2 (Homo sapiens, UniProt P37231)
Sequence (P37231 whole entry): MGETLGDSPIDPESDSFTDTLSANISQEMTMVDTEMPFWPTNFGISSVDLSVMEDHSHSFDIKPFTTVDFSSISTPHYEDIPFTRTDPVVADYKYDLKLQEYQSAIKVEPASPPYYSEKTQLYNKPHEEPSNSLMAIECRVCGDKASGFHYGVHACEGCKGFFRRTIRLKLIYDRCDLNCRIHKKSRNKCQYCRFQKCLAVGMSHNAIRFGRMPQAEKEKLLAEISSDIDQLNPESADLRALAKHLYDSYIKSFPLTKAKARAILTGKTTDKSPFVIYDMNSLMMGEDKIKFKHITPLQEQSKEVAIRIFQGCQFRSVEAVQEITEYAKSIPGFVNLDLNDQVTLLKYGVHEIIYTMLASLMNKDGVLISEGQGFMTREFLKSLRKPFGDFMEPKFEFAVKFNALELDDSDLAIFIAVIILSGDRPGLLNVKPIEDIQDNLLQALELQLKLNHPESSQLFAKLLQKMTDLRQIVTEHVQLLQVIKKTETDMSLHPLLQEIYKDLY
Sequence (Q15596 whole entry, further chain): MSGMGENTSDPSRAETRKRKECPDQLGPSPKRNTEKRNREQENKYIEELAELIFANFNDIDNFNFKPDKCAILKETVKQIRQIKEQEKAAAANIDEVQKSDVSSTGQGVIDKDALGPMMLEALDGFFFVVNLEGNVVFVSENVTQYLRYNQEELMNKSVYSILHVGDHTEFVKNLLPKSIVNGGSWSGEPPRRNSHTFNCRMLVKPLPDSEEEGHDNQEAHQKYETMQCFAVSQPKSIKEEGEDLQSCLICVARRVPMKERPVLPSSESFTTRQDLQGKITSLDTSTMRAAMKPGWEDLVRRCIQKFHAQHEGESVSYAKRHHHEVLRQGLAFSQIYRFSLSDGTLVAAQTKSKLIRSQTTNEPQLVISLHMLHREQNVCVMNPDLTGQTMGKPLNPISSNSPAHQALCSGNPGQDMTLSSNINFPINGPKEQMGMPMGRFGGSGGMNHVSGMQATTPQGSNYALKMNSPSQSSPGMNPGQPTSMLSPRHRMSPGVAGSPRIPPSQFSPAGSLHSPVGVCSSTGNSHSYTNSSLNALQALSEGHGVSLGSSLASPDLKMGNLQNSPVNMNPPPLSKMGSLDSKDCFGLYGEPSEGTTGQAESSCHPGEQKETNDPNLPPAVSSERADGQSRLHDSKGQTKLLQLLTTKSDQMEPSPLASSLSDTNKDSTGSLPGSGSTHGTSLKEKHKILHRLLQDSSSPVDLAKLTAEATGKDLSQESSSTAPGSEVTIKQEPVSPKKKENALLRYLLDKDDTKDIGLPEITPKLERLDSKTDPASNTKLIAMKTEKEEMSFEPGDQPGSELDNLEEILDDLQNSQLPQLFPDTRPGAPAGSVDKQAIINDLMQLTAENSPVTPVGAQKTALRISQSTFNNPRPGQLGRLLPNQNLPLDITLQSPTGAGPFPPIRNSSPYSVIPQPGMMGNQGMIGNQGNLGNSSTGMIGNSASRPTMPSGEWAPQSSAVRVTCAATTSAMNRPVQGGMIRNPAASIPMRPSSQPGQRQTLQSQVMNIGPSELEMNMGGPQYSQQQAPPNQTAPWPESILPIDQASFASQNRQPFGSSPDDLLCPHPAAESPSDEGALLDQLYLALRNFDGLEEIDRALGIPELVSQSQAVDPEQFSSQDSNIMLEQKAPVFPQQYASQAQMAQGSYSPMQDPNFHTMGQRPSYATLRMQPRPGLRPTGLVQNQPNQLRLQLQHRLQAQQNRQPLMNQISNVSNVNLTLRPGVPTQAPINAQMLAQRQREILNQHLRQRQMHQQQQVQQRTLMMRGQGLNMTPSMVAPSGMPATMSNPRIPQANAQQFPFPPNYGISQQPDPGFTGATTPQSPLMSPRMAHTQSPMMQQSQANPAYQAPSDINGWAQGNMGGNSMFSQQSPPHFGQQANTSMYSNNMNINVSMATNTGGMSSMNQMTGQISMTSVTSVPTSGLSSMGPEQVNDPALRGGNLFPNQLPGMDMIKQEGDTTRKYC
Assay: TR-FRET dose response biochemical High Throughput Screening assay for agonists of the steroid receptor coactivator 2 (SRC-2) recruitment by the peroxisome proliferator-activated receptor gamma (PPAR gamma): non-selective agonists. [Related pubchem assays: 1297, 1032 ]
Type: functional

A selection of reference data follows.
1) Cc1ccccc1-c1nnc(S)n1/N=C/c1ccc(-c2ccccc2Br)o1 = 28.6 µM (not active)
2) OCC1(CCc2ccccc2)CCN(Cc2ccc3nsnc3c2)CC1 = 29.1 µM (not active)
3) CCn1c(=O)cc(SCC(=O)N2CCN(C(=O)c3ccco3)CC2)c2ccccc21 = > 79.4 µM (not active)
4) Cn1c(=O)cc(SCC(=O)N2CCCC2)c2ccccc21 = > 79.4 µM (not active)
5) COc1ccc(CC(=O)Nc2ccc(-c3nc4cc(C)ccc4o3)c(O)c2)cc1OC = 24 µM (not active)

Looking up `CCc1cc2c(=O)n(-c3ccccc3)c(=S)[nH]c2s1` , I found its EC50 recorded as > 79.4 µM (not active)

* * *

// reported AC50 for each item listed
Biological target: Cytochrome P450 2C9 (Homo sapiens)
Sequence (P11712 whole entry): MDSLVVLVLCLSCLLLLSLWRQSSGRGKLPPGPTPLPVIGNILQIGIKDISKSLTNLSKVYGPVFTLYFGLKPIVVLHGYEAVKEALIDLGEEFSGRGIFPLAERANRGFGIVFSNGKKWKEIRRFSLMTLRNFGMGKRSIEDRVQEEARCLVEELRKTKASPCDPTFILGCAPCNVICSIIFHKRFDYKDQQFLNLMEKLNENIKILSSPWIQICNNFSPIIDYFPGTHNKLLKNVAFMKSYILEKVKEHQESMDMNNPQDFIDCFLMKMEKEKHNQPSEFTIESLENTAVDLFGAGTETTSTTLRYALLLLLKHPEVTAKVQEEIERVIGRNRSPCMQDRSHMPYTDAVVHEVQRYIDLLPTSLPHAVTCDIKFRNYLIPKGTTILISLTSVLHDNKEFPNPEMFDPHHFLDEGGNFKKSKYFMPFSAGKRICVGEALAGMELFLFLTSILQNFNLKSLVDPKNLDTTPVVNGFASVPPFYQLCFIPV

1) c1cnc2ccc(C(c3nnnn3C3CCCC3)N3CCN4CCCC4C3)cc2c1 (centres undefined) = 14.1 µM (inconclusive)
2) C/C(=C\c1ccc(N(C)C)cc1)[N+](=O)[O-] = 31.6 µM (inconclusive)
3) COCCCn1nnnc1SCC(=O)N1CCCC1 = 0.0126 µM (inconclusive)
4) CCOc1ccc2nc(N3CCCCCC3)sc2c1 = 12.6 µM (inconclusive)
5) C/C(Cl)=C/CSc1nnc2n(N)c(=O)c3ccccc3n12 = 22.4 µM (inconclusive)
6) NCCNC(=S)S = 6.31 µM (inconclusive)
7) CCOC(=O)C1CCCN(C/C=C/c2ccccc2[N+](=O)[O-])C1 (centres undefined) = 15.8 µM (inconclusive)
8) CCOc1nnc(C)c2c(C)n(-c3ccc(Cl)cc3)nc12 = 25.1 µM (inconclusive)

Now for another entry.
Record `CC(C)(C)NC[C@@H](O)COc1ccccc1C1CCCC1` ; system Cytochrome P450 2C9 (Homo sapiens); AC50 = 12.6 µM (inconclusive)

* * *

Target: Ubiquitin-conjugating enzyme E2 N (Homo sapiens)
Sequence (P61088 whole entry): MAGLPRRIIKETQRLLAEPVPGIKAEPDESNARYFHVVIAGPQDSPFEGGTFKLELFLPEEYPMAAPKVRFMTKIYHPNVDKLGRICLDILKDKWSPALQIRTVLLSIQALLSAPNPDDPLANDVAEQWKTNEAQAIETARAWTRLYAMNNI
Assay type: functional
Calls of active or inactive are those of the source.
Respond only with the outcome that fits, drawn from active, inactive

Please review the following examples before continuing.
1. COc1ccc(/C=N/Nc2cc(C)nc3ccc(OC)cc23)c(OC)c1 = active
2. COc1ccc(NS(=O)(=O)c2cc(C(=O)N3CCC3)ccc2C)cc1 = inactive

Hi, do you know how O=C(Nc1cccc(C2=NCCN2)c1)Nc1cccc(C2=NCCN2)c1 [IMIDOCARB DIPROPIONATE] came out in this test?
active

Hi, do you know how CC(C)CC(C(=O)NC(C)(C)C)N(Cc1ccccc1Cl)C(=O)c1snc(C(N)=O)c1N (stereo unspecified) came out in this test?
active

Hi, do you know how C#CCOCCOCCOCCNc1nc(N2CCN(C(=O)C([C@@H](C)O)n3cc([C@@H](N)CCCCN)nn3)CC2)nc(N2CCN(C(=O)[C@H](CCCN=C(N)N)n3cc(C(N)[C@@H](C)CC)nn3)CC2)n1 (stereo partly specified) came out in this test?
active

Hi, do you know how `COc1ccc(-c2cc(C#N)nc(N3CCNCC3)n2)cc1` came out in this test?
active

* * *

Target: Kallikrein-7 (Homo sapiens)
Sequence (P49862 whole entry): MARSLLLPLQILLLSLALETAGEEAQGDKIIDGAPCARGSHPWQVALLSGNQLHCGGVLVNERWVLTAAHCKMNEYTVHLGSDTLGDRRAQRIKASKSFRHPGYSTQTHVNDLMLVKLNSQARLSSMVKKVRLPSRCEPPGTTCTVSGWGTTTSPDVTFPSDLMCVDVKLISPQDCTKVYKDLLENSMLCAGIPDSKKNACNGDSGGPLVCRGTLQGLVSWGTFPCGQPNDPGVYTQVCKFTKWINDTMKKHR
Assay: Fluorescence Intensity-based biochemical primary high throughput dose response assay to identify activators of kallikrein-7 (K7) zymogen.
Calls of active or inactive are those of the source.
Respond only with the outcome that fits, drawn from label 1 (active), label 0 (inactive)

1. COC(=O)C1=CNC=C(C(=O)OC)C1c1ccc(C(=O)OC)cc1 = label 0
2. O=C(Nc1ccc2c(c1)C(=O)NC2=O)c1ccc(S(=O)(=O)N2CCCC2)cc1 = label 1
3. Cc1cccc(-n2c(SCC(=O)N3CCCC3)nc3nnc(C)c-3c2N)c1 = label 0

Hi, do you know how `O=C(NC1CCCCCC1)c1cc2c(=O)n3ccccc3nc2s1` came out in this test?
label 0

Hi, do you know how `CC(C)OCCOc1ccc2oc(-c3ccco3)cc(=O)c2c1` came out in this test?
label 1

Hi, do you know how `O=C(Nc1ccc2nc3ccccc3nc2c1)c1ccccc1` came out in this test?
label 0

Hi, do you know how `COCCN(CCOC)c1cc(C)c(C#N)c2nc3ccccc3n12` came out in this test?
label 0

Hi, do you know how `CN1CCN(Cc2c(O)c(Cl)cc3c(-c4ccccc4)cc(=O)oc23)CC1` came out in this test?
label 0

Hi, do you know how `O=C(O)c1ccc(/C=N/NC(=O)c2cc(-c3cccs3)nc3ccccc23)cc1` came out in this test?
label 0

Hi, do you know how `CCC(=O)N1CCc2cc(-c3csc(NC(=O)c4ccco4)n3)ccc21` came out in this test?
label 0

* * *

System: P388/ADR
Assay: cells
Format: functional
Details: Mus musculus
Calls of active or inactive are those of the source.
Respond only with the outcome that fits, drawn from 1 (yes) for active, 0 (no) for inactive

1) COc1cc(C2c3cc4c(cc3[C@@H](Nc3cccc(C(C)=O)c3)C3COC(=O)[C@H]23)OCO4)cc(OC)c1O (some centres undefined) = 1 (yes)

Hi, do you know how `C/C([O-])=C(/c1nc(-c2ccc([N+](=O)[O-])o2)no1)[n+]1cc(C)ccc1C` came out in this test?
0 (no)

Hi, do you know how `C#CC[C@@]12CC(=O)C[C@@H]1CCC1(C2)OCCO1.C#CC[C@]12CC(=O)CC[C@H]1CC(=O)C2` came out in this test?
0 (no)

Hi, do you know how O=C(NC(c1ccccc1)C(O)C(=O)OCc1ccc2c(c1)C(=O)c1ccccc1C2=O)c1ccccc1 (centres undefined) came out in this test?
0 (no)

* * *

Molecular target: UniProt P08253
Sequence (P08253 whole entry): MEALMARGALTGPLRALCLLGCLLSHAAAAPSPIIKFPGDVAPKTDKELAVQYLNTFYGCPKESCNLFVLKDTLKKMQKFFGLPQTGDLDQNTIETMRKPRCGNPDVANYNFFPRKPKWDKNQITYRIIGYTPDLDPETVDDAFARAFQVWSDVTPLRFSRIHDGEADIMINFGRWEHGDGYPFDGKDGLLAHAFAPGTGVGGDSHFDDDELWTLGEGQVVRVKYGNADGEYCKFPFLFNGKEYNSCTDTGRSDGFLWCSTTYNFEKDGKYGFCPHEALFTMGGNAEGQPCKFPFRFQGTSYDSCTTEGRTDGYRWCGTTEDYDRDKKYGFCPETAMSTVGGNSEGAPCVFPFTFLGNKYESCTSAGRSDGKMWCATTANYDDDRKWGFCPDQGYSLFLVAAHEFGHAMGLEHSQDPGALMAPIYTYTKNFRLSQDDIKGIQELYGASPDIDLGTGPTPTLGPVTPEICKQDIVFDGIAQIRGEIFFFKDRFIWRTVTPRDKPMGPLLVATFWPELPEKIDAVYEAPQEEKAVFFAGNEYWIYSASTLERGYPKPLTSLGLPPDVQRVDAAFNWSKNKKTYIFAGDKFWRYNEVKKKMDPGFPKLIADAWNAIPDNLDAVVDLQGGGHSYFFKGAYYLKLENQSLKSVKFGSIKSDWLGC
Assay: Dose Response validation of uHTS RPN11 inhibitor hits using a MMP-2 Fluorescence assay.
Assay type: functional
The source made the active and inactive calls.
Respond only with the outcome that fits, drawn from Y = active, N = inactive

1. CCCCC1=CC2=CC(=O)C(C)(OC(=O)C3CCCC3)C(=O)C2=CO1 (stereo not drawn) = N

Hi, do you know how `CC(C)Oc1ccc(/C=C(\NC(=O)/C=C/c2ccco2)C(=O)NCCc2nc3ccccc3[nH]2)cc1` came out in this test?
N

Hi, do you know how `CCOc1ccc(C(=O)CCC(=O)N2CCN(c3ncccn3)CC2)cc1` came out in this test?
Y

Hi, do you know how `O=C(CN1C(=O)/C(=C/c2ccco2)SC1=S)Nc1ccc(C(=O)O)c(O)c1` came out in this test?
Y

Hi, do you know how `COc1cc2cc3c(N)c(C(=O)Nc4sc(C)c(C)c4C#N)sc3nc2cc1OC` came out in this test?
Y

Hi, do you know how CCCCCCCCCCCCCCC(O)C[N+](C)(CCO)CCO (stereo not drawn) came out in this test?
Y

Hi, do you know how O=C(O)C(Cc1ccccc1)N1C(=O)/C(=C/C=C/c2ccco2)SC1=S (stereo not drawn) came out in this test?
Y

Hi, do you know how `Cc1ccccc1C(=O)/C=C1/SCC(=O)N1C` came out in this test?
N

* * *

Biological target: UniProt P05177
Sequence (P05177 whole entry): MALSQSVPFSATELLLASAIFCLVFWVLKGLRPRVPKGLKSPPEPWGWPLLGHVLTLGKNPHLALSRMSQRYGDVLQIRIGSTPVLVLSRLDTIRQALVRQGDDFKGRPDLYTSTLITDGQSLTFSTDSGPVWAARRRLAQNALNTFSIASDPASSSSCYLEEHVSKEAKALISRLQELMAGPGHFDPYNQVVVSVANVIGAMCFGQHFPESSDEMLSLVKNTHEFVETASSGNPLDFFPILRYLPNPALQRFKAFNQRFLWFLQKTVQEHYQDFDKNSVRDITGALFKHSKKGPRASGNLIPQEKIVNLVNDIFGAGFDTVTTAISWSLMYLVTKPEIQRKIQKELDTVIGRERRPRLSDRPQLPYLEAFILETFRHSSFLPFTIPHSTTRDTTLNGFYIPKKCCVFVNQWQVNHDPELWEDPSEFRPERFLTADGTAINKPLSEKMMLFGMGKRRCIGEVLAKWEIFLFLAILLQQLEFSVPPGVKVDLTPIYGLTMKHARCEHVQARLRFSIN
// reported AC50 for each item listed

1) CC(Oc1ccc(Cl)cc1)C(=O)/C=C/N(C)C (stereo not given) = 15.8 µM (inconclusive)

Looking up `Cc1cccc(CS(=O)(=O)Cc2ccc(C(=O)NCc3ccco3)o2)c1` , I found its AC50 recorded as 5.01 µM (inconclusive)

Looking up `C#C[C@@]1(O)CC[C@@H]2[C@@H]3CCC4=C(CCC(=O)C4)[C@H]3CC[C@]21C` , I found its AC50 recorded as 12.6 µM (inconclusive)

Looking up `COc1ccc(-n2c(=O)c(-c3ccc(Cl)cc3)nc3cnc(N(C)C)nc32)cc1` , I found its AC50 recorded as 10 µM (inconclusive)

Looking up COc1ccc2[nH]c([S+]([O-])Cc3ncc(C)c(OC)c3C)nc2c1 (stereo not given) , I found its AC50 recorded as 31.6 µM (inconclusive)

Source listed as ChEMBL document CHEMBL1201862.
